system: apyrase; assay: Screen for apyrase inhibitors (Method 1, in vitro phosphate-release absorbance assay); format: biochemical; details: inhibitor conc at 1 mM stock, 1 hr room temperature, absorbance 630 nm; rounded average of two assay results
measurement name: % Inhibition of Apyrase
The answer consists of two parts: a number and, after it, its unit.

Param item = `O=C(Nc1cccc(Cl)c1)c1cccc(S(=O)(=O)N2CCc3ccccc32)c1` ; retrieve measured % Inhibition of Apyrase.
56%

Reported % Inhibition of Apyrase, molecule CN(c1ccccc1)S(=O)(=O)c1ccccc1C(=O)Nc1ccc2c(c1)OCO2 [I-351] : ____
53%

Returns the measured % Inhibition of Apyrase for the input molecule. Input: `O=C(Nc1ccccn1)c1cccc(NS(=O)(=O)c2ccc(Br)cc2)c1`
71%

Sample `COc1ccccc1NS(=O)(=O)c1cccc(C(=O)Nc2cccc([N+](=O)[O-])c2)c1` — what was its % Inhibition of Apyrase?
58%

Need % Inhibition of Apyrase, item `O=C(Nc1cccc(S(=O)(=O)Nc2ccc(Cl)cc2)c1)c1ccc(Cl)nc1`
15%

What value of measured % Inhibition of Apyrase is listed for `Cc1ccc(S(=O)(=O)Nc2ccc(F)cc2)cc1C(=O)N1CCc2ccccc21` ?
54%

# % Inhibition of Apyrase lookup, item Cc1ccc(NC(=O)c2cccc(S(=O)(=O)N3CCc4ccccc43)c2)c(OCC2CCCO2)c1 (stereo not drawn)
53%

Using the record for `Cc1ccc(NC(=O)c2cccc(S(=O)(=O)Nc3ccc4c(c3)OCO4)c2)cc1C` , report its % Inhibition of Apyrase.
66%

GET /values?readout=% Inhibition of Apyrase&item= `COc1ccc(NC(=O)c2cccc(S(=O)(=O)N3CCc4ccccc43)c2)c(OC)c1`
49%

Which measured % Inhibition of Apyrase value corresponds to `N#Cc1cccc(S(=O)(=O)Nc2cccc(C(=O)Nc3cccc(C(F)(F)F)c3)c2)c1` ?
74%

Which % Inhibition of Apyrase value belongs to `CCOc1ccc(NS(=O)(=O)c2ccc(C(=O)Nc3cccc(C#N)c3)cc2)cc1` ?
76%

Give its % Inhibition of Apyrase value. Item: `Cc1cccc(C(=O)Nc2cccc(S(=O)(=O)Nc3cccc(C(F)(F)F)c3)c2)n1`
61%

// % Inhibition of Apyrase lookup, key: `Cc1ccc(S(=O)(=O)N(C)c2ccc(C(=O)Nc3ccccc3OC(F)F)cc2)cc1`
43%

% Inhibition of Apyrase lookup needed for CC1Cc2ccccc2N1S(=O)(=O)c1cccc(C(=O)Nc2ccc3c(c2)OCCO3)c1 (stereo not drawn) , thanks.
54%

So what does the record say about % Inhibition of Apyrase for `O=C(Nc1ccc(S(=O)(=O)Nc2ccc(Cl)cc2)cc1)c1cccc(C(F)(F)F)c1` ?
60%

Entry under review: `CN(c1ccccc1)S(=O)(=O)c1cccc(NC(=O)c2cncc(Br)c2)c1` . Reported % Inhibition of Apyrase?
58%

Reported % Inhibition of Apyrase, molecule `O=C(Nc1cccc(NS(=O)(=O)c2c(Br)cc3[nH]c(=O)oc3c2Cl)c1)c1ccc(Br)cc1` : ____
73%

Please give the measured % Inhibition of Apyrase for this molecule: `Cc1ccc(NC(=O)c2ccc(Cl)c(S(=O)(=O)N3CCc4ccccc43)c2)cc1`
60%
